Target: recombinant human cathepsin C (Homo sapiens)
Sequence (P53634 25-463): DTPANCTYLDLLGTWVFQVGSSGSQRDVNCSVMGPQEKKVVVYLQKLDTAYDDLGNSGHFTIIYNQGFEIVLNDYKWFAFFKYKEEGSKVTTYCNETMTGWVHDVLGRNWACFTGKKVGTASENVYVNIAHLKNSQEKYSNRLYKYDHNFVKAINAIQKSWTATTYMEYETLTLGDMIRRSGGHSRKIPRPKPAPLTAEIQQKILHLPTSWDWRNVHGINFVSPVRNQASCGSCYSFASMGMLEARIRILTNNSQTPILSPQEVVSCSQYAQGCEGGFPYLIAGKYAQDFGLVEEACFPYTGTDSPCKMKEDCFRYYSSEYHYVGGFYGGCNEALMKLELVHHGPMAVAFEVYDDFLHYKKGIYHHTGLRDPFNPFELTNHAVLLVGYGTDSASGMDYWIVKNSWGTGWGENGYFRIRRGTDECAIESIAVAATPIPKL
Test: Recombinant Cathepsin C in vitro assay (cleavage of fluorogenic substrate H-Ser-Tyr-AMC)
Conditions: average of two experiments; one hour preincubation, pH 5.5, room temperature; read-out: concentration giving 50% cathepsin C inhibition
pIC50: −log10 of the molar value. Structures can show the parent of a compound that is named as a salt.
quantityMeasured: pIC50

molecule | resultValue
CC[C@@H](/C=C/C(=O)N1CCc2ccccc21)NC(=O)C1(N)CCOCC1 [Example 1, hydrochloride] | > 9.00

Shift focus to the following entry.
Consider the molecule CC(C)C[C@@H](/C=C/C(=O)N1CCc2ccccc21)NC(=O)C1(N)CCOCC1 [Example 2, hydrochloride] and give its measured pIC50.
> 9.00
